Reference for the values: PubChem BioAssay AID2060485

Listed here: items and their measured viability, T/C.
System: A375 multi-cell spheroids with HUVEC/MSC, viability
test_protocol: Anticancer human tumor A375 cell line growth inhibition [GQUAD];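 also: spheroids exposed to compounds for seven days before readout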
condition_details: second compound 3.16 µM; first compound 0.1 µM; stronger effect = lower value
Give the number; % is assumed, so skip it.

{"compound": "CC1COCCN1c1cc(C2(S(C)(=N)=O)CC2)nc(-c2ccnc3[nH]ccc23)n1 (stereo unspecified) + Cc1[nH]c2ccc(F)cc2c1-c1nc2c3cccnc3c3ncccc3c2[nH]1", "measured_endpoint": "viability, T/C", "measured_value": 88.7}
{"compound": "Nc1ccn(C2OC(CO)C(O)C2(F)F)c(=O)n1 (stereo unspecified) + Cc1[nH]c2ccc(F)cc2c1-c1nc2c3cccnc3c3ncccc3c2[nH]1", "measured_endpoint": "viability, T/C", "measured_value": 13.1}
{"compound": "C#Cc1c(F)ccc2cc(O)cc(-c3ncc4c(N5CC6CCC(C5)N6)nc(OCC56CCCN5CC(F)C6)nc4c3F)c12 (stereo unspecified) + Cc1[nH]c2ccc(F)cc2c1-c1nc2c3cccnc3c3ncccc3c2[nH]1", "measured_endpoint": "viability, T/C", "measured_value": 71.6}
{"compound": "Cc1cccc(N(C)C(=O)C2C(O)CCN2c2nc(C)cc(C(F)(F)F)c2C#N)c1 (stereo unspecified) + CN(C)c1ccc(Nc2c3ccc(NC(=O)CCN4CCCC4)cc3nc3cc(NC(=O)CCN4CCCC4)ccc23)cc1", "measured_endpoint": "viability, T/C", "measured_value": 106}
{"compound": "O=c1[nH]cc(F)c(=O)[nH]1 + Cc1cnc(CNC(=O)c2c(=O)c3ccc(N4CCCN(C)CC4)nc3n3c2sc2ccccc23)cn1", "measured_endpoint": "viability, T/C", "measured_value": 33.4}

Can you look up the measured viability, T/C of O=C(NO)c1cnc(N2CCN(S(=O)(=O)c3ccc4ccccc4c3)CC2)nc1 + CN(C)c1ccc(Nc2c3ccc(NC(=O)CCN4CCCC4)cc3nc3cc(NC(=O)CCN4CCCC4)ccc23)cc1 for me?
110

Can you look up the measured viability, T/C of CCCS(=O)(=O)Nc1ccc(F)c(C(=O)c2c[nH]c3ncc(-c4ccc(Cl)cc4)cc23)c1F + Cc1cnc(CNC(=O)c2c(=O)c3ccc(N4CCCN(C)CC4)nc3n3c2sc2ccccc23)cn1 for me?
11.3
